The molecules listed here are annotated with their inhibition at 0.1 µM.
# Test system: ANGPTL4, a PPARG target gene, in HT1197 (RXRA S427F mutation) cells
# experimental-details: Bladder cancer pharmacodynamic assay, HT1197 cell assay (qPCR of PPARG target gene ANGPTL4)
# Format: cell-based
# stated-conditions: Homo sapiens, read-out: % inhibition of ANGPTL4 @ 100 nM, 100 nM compound, 24 hours, relative to DMSO control
reported-property: inhibition at 0.1 µM (%)

molecule: N#Cc1ccc(Cl)c(-c2cc(=O)c3c(F)c(N4CCS(=O)(=O)CC4)c(F)cc3[nH]2)n1 [Example 17]
reported-property: inhibition at 0.1 µM
unit-string: %
obs-value: 78

molecule: C[S+]([O-])c1cnc(C#N)cc1-c1cc(=O)c2c(F)cc(F)cc2[nH]1 (centres unmarked) [Example 28]
reported-property: inhibition at 0.1 µM
unit-string: %
obs-value: 79

molecule: N#Cc1cc(-c2cc(=O)c3ccc(Cl)cc3[nH]2)c(Cl)cn1 [Example 4]
reported-property: inhibition at 0.1 µM
unit-string: %
obs-value: 88

molecule: CN(C)C(=O)[C@H]1CCCN(c2c(F)cc3[nH]c(-c4cc(C#N)ncc4Cl)cc(=O)c3c2F)C1 [Example 23]
reported-property: inhibition at 0.1 µM
unit-string: %
obs-value: 76

molecule: N#Cc1ccc(Cl)c(-c2cc(=O)c3ccccc3[nH]2)n1 [Example 5]
reported-property: inhibition at 0.1 µM
unit-string: %
obs-value: 71

molecule: N#Cc1ccc(Cl)c(-c2cc(=O)c3ccc(Cl)cc3[nH]2)n1 [Example 6]
reported-property: inhibition at 0.1 µM
unit-string: %
obs-value: 73

molecule: CN(C)C(=O)[C@H]1CCN(c2c(F)cc3[nH]c(-c4cc(C#N)ncc4Cl)cc(=O)c3c2F)C1 [Example 26]
reported-property: inhibition at 0.1 µM
unit-string: %
obs-value: 85

molecule: CN(C)C(=O)[C@H]1CCCN(c2c(F)cc3[nH]c(-c4cc(C#N)ncc4S(C)(=O)=O)cc(=O)c3c2F)C1 (single isomer, unassigned) [Example 34]
reported-property: inhibition at 0.1 µM
unit-string: %
obs-value: 87
